These measurements were taken from ChEMBL document CHEMBL5150076.

Can you tell me viability at 24 h, 64 ug/ml for the items I'm about to list?
Experimental Details: Cytotoxicity against HUVEC assessed as cell viability at 64 ug/ml incubated for 24 hrs by CCK-8 assay
Assay type: toxicity, cell-based
Condition Info: human, HUVEC cells, at 64 µg/mL, read-out: Activity
Give the value in % but do not write % after it.

Q. Value lookup for viability at 24 h, 64 ug/ml; key = C[C@@H](c1ncncc1F)[C@](O)(Cn1cncn1)c1ccc(F)cc1F
A. 93.4

Q. Could you do the same for CC[C@@H]([C@H](C)O)n1ncn(-c2ccc(N3CCN(c4ccc(OC[C@@H]5CO[C@@](Cn6cncn6)(c6ccc(F)cc6F)C5)cc4)CC3)cc2)c1=O , please?
A. 115

Q. Could you do the same for C[C@@H]1[C@H](O)[C@@H](C)/C=C/C=C/C=C/C=C/C=C/C=C/C=C/[C@H](O[C@@H]2O[C@H](C)[C@@H](O)[C@H](N)[C@@H]2O)C[C@@H]2O[C@](O)(C[C@@H](O)C[C@@H](O)[C@H](O)CC[C@@H](O)C[C@@H](O)CC(=O)O[C@H]1C)C[C@H](O)[C@H]2C(=O)O , please?
A. 78.2

Q. Could you do the same for OC(Cn1cncn1)(Cn1cncn1)c1ccc(F)cc1F , please?
A. 88.4

###

Experimental Details: Clearance in Sprague-Dawley rat at 2 mg/kg, iv by LC-MS analysis
Condition Info: in vivo
Measured Metric: clearance (mL/min/kg)
Give the value in mL/min/kg but do not write mL/min/kg after it.

Q. Value lookup for clearance; key = C[C@@H](c1cn(-c2ccc(Cl)cc2F)nn1)[C@](O)(Cn1cncn1)c1ccc(F)cc1F
A. 1.99

###

Experimental Details: Tmax in Sprague-Dawley rat at 5 mg/kg, po by LC-MS analysis
Assay type: ADME, organism-based
Condition Info: in vivo
Can you tell me Tmax for the items I'm about to list?
Give the value in h but do not write h after it.

Q. Value lookup for Tmax; key = C[C@@H](c1ncncc1F)[C@](O)(Cn1cncn1)c1ccc(F)cc1F [VORICONAZOLE]
A. 0.89

Q. Could you do the same for C[C@@H](c1cn(-c2ccc(Cl)cc2F)nn1)[C@](O)(Cn1cncn1)c1ccc(F)cc1F , please?
A. 2.71

###

Can you tell me Cmax for the items I'm about to list?
Experimental Details: Cmax in Sprague-Dawley rat at 5 mg/kg, po by LC-MS analysis
Type: ADME, organism-based
Design: dose 5 mg/kg, route po
Condition Info: in vivo
Please format your answer as a value with the unit trailing.

Q. Value lookup for Cmax; key = C[C@@H](c1ncncc1F)[C@](O)(Cn1cncn1)c1ccc(F)cc1F [VORICONAZOLE]
A. 877 ng/mL

Q. Could you do the same for C[C@@H](c1cn(-c2ccc(Cl)cc2F)nn1)[C@](O)(Cn1cncn1)c1ccc(F)cc1F , please?
A. 837 ng/mL

###

Test system: Candida tropicalis
Experimental Details: Antifungal activity against Candida tropicalis 112936
Format: functional
Measured Metric: MIC

Q. Value lookup for MIC; key = OC(Cn1cncn1)(Cn1cncn1)c1ccc(F)cc1F
A. > 64 µg/mL

Q. Could you do the same for CC[C@@H]([C@H](C)O)n1ncn(-c2ccc(N3CCN(c4ccc(OC[C@@H]5CO[C@@](Cn6cncn6)(c6ccc(F)cc6F)C5)cc4)CC3)cc2)c1=O , please?
A. > 16 µg/mL

Q. Could you do the same for C[C@@H](c1ncncc1F)[C@](O)(Cn1cncn1)c1ccc(F)cc1F , please?
A. > 16 µg/mL

Q. Could you do the same for CCC(C)n1ncn(-c2ccc(N3CCN(c4ccc(OCC5COC(Cn6cncn6)(c6ccc(Cl)cc6Cl)O5)cc4)CC3)cc2)c1=O (centres undefined) , please?
A. > 16 µg/mL

###

Experimental Details: Half life in Sprague-Dawley rat at 2 mg/kg, iv by LC-MS analysis
Assay type: ADME, organism-based
Condition Info: in vivo
Measured Metric: half-life (h)
Give the value in h but do not write h after it.

Q. Value lookup for half-life; key = C[C@@H](c1ncncc1F)[C@](O)(Cn1cncn1)c1ccc(F)cc1F
A. 3.9

Q. Could you do the same for C[C@@H](c1cn(-c2ccc(Cl)cc2F)nn1)[C@](O)(Cn1cncn1)c1ccc(F)cc1F , please?
A. 4.5

###

Can you tell me MIC for the items I'm about to list?
Tested on: Pichia kudriavzevii
Experimental Details: Antifungal activity against Candida krusei 629
Type: functional
Give the value in µg/mL but do not write µg/mL after it.

Q. Enter reported MIC observed with Pichia kudriavzevii for C[C@@H](c1ncncc1F)[C@](O)(Cn1cncn1)c1ccc(F)cc1F
A. 0.0625

Q. Could you do the same for OC(Cn1cncn1)(Cn1cncn1)c1ccc(F)cc1F , please?
A. 4

Q. Could you do the same for CC[C@@H]([C@H](C)O)n1ncn(-c2ccc(N3CCN(c4ccc(OC[C@@H]5CO[C@@](Cn6cncn6)(c6ccc(F)cc6F)C5)cc4)CC3)cc2)c1=O , please?
A. 2

Q. Could you do the same for CCC(C)n1ncn(-c2ccc(N3CCN(c4ccc(OCC5COC(Cn6cncn6)(c6ccc(Cl)cc6Cl)O5)cc4)CC3)cc2)c1=O (stereo not given) , please?
A. 1

Q. Could you do the same for C[C@@H](c1cn(-c2ccc(Cl)cc2F)nn1)[C@](O)(Cn1cncn1)c1ccc(F)cc1F , please?
A. 0.25

###

Can you tell me MIC for the items I'm about to list?
System: Candida parapsilosis
Experimental Details: Antifungal activity against Candida parapsilosis 22019
Type: functional
Condition Info: Lodderomyces parapsilosis
Give the value in µg/mL but do not write µg/mL after it.

Q. Value lookup for MIC; key = C[C@@H](c1ncncc1F)[C@](O)(Cn1cncn1)c1ccc(F)cc1F [VORICONAZOLE]
A. 0.0313

Q. Could you do the same for C[C@@H](c1cn(-c2cc(F)ccc2F)nn1)[C@](O)(Cn1cncn1)c1ccc(F)cc1F , please?
A. 0.0625

Q. Could you do the same for OC(Cn1cncn1)(Cn1cncn1)c1ccc(F)cc1F [FLUCONAZOLE] , please?
A. 2

Q. Could you do the same for C[C@@H](c1cn(-c2ccc(OC(F)(F)F)cc2)nn1)[C@](O)(Cn1cncn1)c1ccc(F)cc1F , please?
A. 0.125

Q. Could you do the same for C[C@@H](c1cn(-c2ccc(Cl)cc2F)nn1)[C@](O)(Cn1cncn1)c1ccc(F)cc1F , please?
A. 0.0625

Q. Could you do the same for C[C@@H](c1cn(-c2ccc(F)cc2F)nn1)[C@](O)(Cn1cncn1)c1ccc(F)cc1F , please?
A. 0.0313

###

Experimental Details: Half life in Sprague-Dawley rat at 5 mg/kg, po by LC-MS analysis
Assay type: ADME, organism-based
Condition Info: in vivo
Measured Metric: half-life (h)
Give the value in h but do not write h after it.

Q. Value lookup for half-life; key = C[C@@H](c1cn(-c2ccc(Cl)cc2F)nn1)[C@](O)(Cn1cncn1)c1ccc(F)cc1F
A. 1.4

Q. Could you do the same for C[C@@H](c1ncncc1F)[C@](O)(Cn1cncn1)c1ccc(F)cc1F , please?
A. 0.67

###

Can you tell me hemolysis at 1 h, 64 ug/ml for the items I'm about to list?
Experimental Details: Induction of hemolysis in rabbit RBC at 64 ug/ml incubated for 1 hr
Type: toxicity, cell-based, Oryctolagus cuniculus, Erythrocyte
Condition Info: red blood cells, at 64 µg/mL, read-out: Activity
Give the value in % but do not write % after it.

Q. Value lookup for hemolysis at 1 h, 64 ug/ml; key = C[C@@H](c1ncncc1F)[C@](O)(Cn1cncn1)c1ccc(F)cc1F [VORICONAZOLE]
A. 1.07

Q. Could you do the same for OC(Cn1cncn1)(Cn1cncn1)c1ccc(F)cc1F [FLUCONAZOLE] , please?
A. 1.01

Q. Could you do the same for C[C@@H]1[C@H](O)[C@@H](C)/C=C/C=C/C=C/C=C/C=C/C=C/C=C/[C@H](O[C@@H]2O[C@H](C)[C@@H](O)[C@H](N)[C@@H]2O)C[C@@H]2O[C@](O)(C[C@@H](O)C[C@@H](O)[C@H](O)CC[C@@H](O)C[C@@H](O)CC(=O)O[C@H]1C)C[C@H](O)[C@H]2C(=O)O [AMPHOTERICIN B] , please?
A. 102

###

Test system: Cryptococcus neoformans
Experimental Details: Antifungal activity against Cryptococcus neoformans H99 incubated for 72 hrs by microbroth dilution method
Type: functional
Measured Metric: log10 MIC (log10 of the value in µg/mL)
On a log10 scale: recorded MIC, unit µg/mL.

Q. Enter reported log10 MIC observed with Cryptococcus neoformans for C[C@@H](c1cn(-c2ccc(Cl)cc2F)nn1)[C@](O)(Cn1cncn1)c1ccc(F)cc1F
A. -1.50

Q. Could you do the same for C[C@@H](c1cn(-c2ccc(O)cc2)nn1)[C@](O)(Cn1cncn1)c1ccc(F)cc1F , please?
A. 0.30

Q. Could you do the same for C[C@@H](c1cn(-c2cc(F)cc(F)c2)nn1)[C@](O)(Cn1cncn1)c1ccc(F)cc1F , please?
A. -1.20

Q. Could you do the same for C[C@@H](c1cn(-c2ccc([N+](=O)[O-])cc2)nn1)[C@](O)(Cn1cncn1)c1ccc(F)cc1F , please?
A. -0.60

Q. Could you do the same for C[C@@H](c1cn(-c2ccc(Cl)c(F)c2)nn1)[C@](O)(Cn1cncn1)c1ccc(F)cc1F , please?
A. -1.20

Q. Could you do the same for C[C@@H](c1cn(-c2ccc(OCC(F)(F)C(F)(F)F)cc2)nn1)[C@](O)(Cn1cncn1)c1ccc(F)cc1F , please?
A. -1.20

Q. Could you do the same for C[C@@H](c1cn(-c2ccc(OCC(F)(F)F)cc2)nn1)[C@](O)(Cn1cncn1)c1ccc(F)cc1F , please?
A. -0.90

Q. Could you do the same for C[C@@H](c1cn(-c2ccc(Cl)cc2)nn1)[C@](O)(Cn1cncn1)c1ccc(F)cc1F , please?
A. -1.81

Q. Could you do the same for C[C@@H](c1cn(-c2ccc(OCC(F)(F)F)nc2)nn1)[C@](O)(Cn1cncn1)c1ccc(F)cc1F , please?
A. -1.20

Q. Could you do the same for C[C@@H](c1cn(-c2ccc(Br)cc2)nn1)[C@](O)(Cn1cncn1)c1ccc(F)cc1F , please?
A. -0.90

Q. Could you do the same for CC(=O)c1ccc(-n2cc([C@H](C)[C@](O)(Cn3cncn3)c3ccc(F)cc3F)nn2)cc1 , please?
A. -0.60

Q. Could you do the same for C[C@@H](c1cn(-c2cccnc2)nn1)[C@](O)(Cn1cncn1)c1ccc(F)cc1F , please?
A. 0.30

Q. Could you do the same for C[C@@H](c1cn(-c2cc(F)ccc2F)nn1)[C@](O)(Cn1cncn1)c1ccc(F)cc1F , please?
A. -1.20

Q. Could you do the same for C[C@@H](c1cn(-c2ccc(C(F)(F)F)cc2)nn1)[C@](O)(Cn1cncn1)c1ccc(F)cc1F , please?
A. -1.20

Q. Could you do the same for C[C@@H](c1cn(-c2ccccc2F)nn1)[C@](O)(Cn1cncn1)c1ccc(F)cc1F , please?
A. -1.20

Q. Could you do the same for C[C@@H](c1cn(-c2ccc(OCc3ccc(C(F)(F)F)cc3)cc2)nn1)[C@](O)(Cn1cncn1)c1ccc(F)cc1F , please?
A. -0.90

Q. Could you do the same for C[C@@H](c1cn(-c2ccc(F)cc2)nn1)[C@](O)(Cn1cncn1)c1ccc(F)cc1F , please?
A. -1.20

Q. Could you do the same for C[C@@H](c1cn(-c2ccccc2)nn1)[C@](O)(Cn1cncn1)c1ccc(F)cc1F , please?
A. -1.20

Q. Could you do the same for C[C@@H](c1cn(-c2ccc(OCc3ccc(OC(F)(F)F)cc3)cc2)nn1)[C@](O)(Cn1cncn1)c1ccc(F)cc1F , please?
A. -1.20

Q. Could you do the same for C[C@@H](c1cn(-c2ccc(F)c(F)c2)nn1)[C@](O)(Cn1cncn1)c1ccc(F)cc1F , please?
A. -0.90

Q. Could you do the same for CCCCCCOc1ccc(-n2cc([C@H](C)[C@](O)(Cn3cncn3)c3ccc(F)cc3F)nn2)cc1 , please?
A. -1.20

Q. Could you do the same for C[C@@H](c1cn(-c2ccc(OCC(F)(F)C(F)F)cc2)nn1)[C@](O)(Cn1cncn1)c1ccc(F)cc1F , please?
A. -1.20

Q. Could you do the same for CCCCOc1ccc(-n2cc([C@H](C)[C@](O)(Cn3cncn3)c3ccc(F)cc3F)nn2)cc1 , please?
A. -1.20

Q. Could you do the same for C[C@@H](c1cn(-c2ccc(Cl)cc2Cl)nn1)[C@](O)(Cn1cncn1)c1ccc(F)cc1F , please?
A. -0.90

Q. Could you do the same for C[C@@H](c1cn(-c2ccc(OC(F)F)cc2)nn1)[C@](O)(Cn1cncn1)c1ccc(F)cc1F , please?
A. -0.90

Q. Could you do the same for C[C@@H](c1cn(-c2ccc(F)cc2F)nn1)[C@](O)(Cn1cncn1)c1ccc(F)cc1F , please?
A. -1.20

Q. Could you do the same for C[C@@H](c1cn(-c2ccc(OC(F)(F)F)cc2)nn1)[C@](O)(Cn1cncn1)c1cc(F)ccc1F , please?
A. -0.90

Q. Could you do the same for C[C@@H](c1cn(-c2c(F)cccc2F)nn1)[C@](O)(Cn1cncn1)c1ccc(F)cc1F , please?
A. -0.90

Q. Could you do the same for C[C@@H](c1cn(-c2c(F)c(F)cc(F)c2F)nn1)[C@](O)(Cn1cncn1)c1ccc(F)cc1F , please?
A. -1.20

Q. Could you do the same for OC(Cn1cncn1)(Cn1cncn1)c1ccc(F)cc1F , please?
A. -0.30

Q. Could you do the same for C[C@@H](c1cn(-c2ccc(OCc3ccc(Cl)cc3)cc2)nn1)[C@](O)(Cn1cncn1)c1ccc(F)cc1F , please?
A. -1.20

Q. Could you do the same for C[C@@H](c1cn(-c2ccc(Cl)cc2F)nn1)[C@](O)(Cn1cncn1)c1cc(F)ccc1F , please?
A. -1.20

Q. Could you do the same for C[C@@H](c1cn(-c2ccc(OCc3ccc(F)cc3)cc2)nn1)[C@](O)(Cn1cncn1)c1ccc(F)cc1F , please?
A. -1.20

Q. Could you do the same for C[C@@H](c1cn(-c2ccc(Cl)cc2)nn1)[C@](O)(Cn1cncn1)c1cc(F)ccc1F , please?
A. -0.90
